# protocolSummary: Urinary excretion of quantified metabolites in collected fractions after extract intake
# Assay type: in vivo, human
# appliedConditions: after consuming orange extract; sum of fractions F1-F4; mean ± SD
outcomeMeasure: Metabolite quantified in urine, Total F (24 h) (μg/mg creatinine)

Illustrative cases are given below, each with its answer.
O=C1C[C@@H](c2ccc(O[C@@H]3O[C@H](C(=O)O)[C@@H](O)[C@H](O)[C@H]3O)cc2)Oc2cc(O)cc(O)c21 [M5, Naringenin 4'-O-glucuronide] = 1.0
COc1ccc([C@@H]2CC(=O)c3c(O)cc(O[C@@H]4O[C@H](C(=O)O)[C@@H](O)[C@H](O)[C@H]4O)cc3O2)cc1O [M7, Hesperetin 7-O-glucuronide] = 5.6
O=C1C[C@@H](c2ccc(O)cc2)Oc2cc(O[C@@H]3O[C@H](C(=O)O)[C@@H](O)[C@H](O)[C@H]3O)cc(O)c21 [M3, Naringenin 7-O-glucuronide] = 0.7

a = COc1ccc(C2CC(=O)c3c(O)cc(O)cc3O2)cc1O[C@@H]1O[C@H](C(=O)O)[C@@H](O)[C@H](O)[C@H]1O (some centres unmarked) [M8, Hesperetin 3'-O-glucuronide]
b = COc1ccc(C2CC(=O)c3c(O)cc(O)cc3O2)cc1OS(=O)(=O)O (centres unmarked) [M14, Hesperetin 3'-O-sulfate]
Of a versus b , which is the one with smaller reported Metabolite quantified in urine, Total F (24 h)? Output the label that corresponds to your choice.
b
